Test system: MDA-MB-435
Test: NCI tumour cell line growth inhibition, 48 h
Activity calls are given as the source filed them. No stated cut-off is given here; in the data, active = GI50 up to about 1.1 µM and inactive = higher.
observationType: GI50

c1cc2cc(c1)CN1CCNCCN(CCNCC1)Cc1cccc(c1)CN1CCNCCN(CCNCC1)C2    > 100 µM (inactive)
CC1C(=O)OCC2=CCN3CCC(OC(=O)C(C)C1(C)O)C23 (stereo not drawn)    > 100 µM (inactive)

Required: GI50, one value per compound below.
1. COc1cc(S(=O)(=O)Nc2nc(-c3ccc(N4C(=O)/C(=C/c5ccccc5[N+](=O)[O-])N=C4c4ccccc4)cc3)cs2)ccc1Cl
2. Cn1c(=O)c2nc(SCCN3CCOCC3)[nH]c2n(C)c1=S
3. CCOC(=O)N1CCNCCN(C(=O)OCC)CCNCC1
4. CCOC(=O)C(C)c1nc2c(Cl)c3ncccc3cc2[nH]c1=O (stereo not drawn)
5. O=C(O/N=c1/ccc(=O)/c(=N\OC(=O)c2ccccc2)c1=O)c1ccccc1

## Output
1: 67.1 µM (inactive); 2: > 100 µM (inactive); 3: > 100 µM (inactive); 4: 84.5 µM (inactive); 5: 53.6 µM (inactive)

Required: GI50, one value per compound below.
1. O=Cc1coc2ccccc2c1=O
2. COc1cc2oc(-c3ccc4c(c3)OCO4)c(OC)c(=O)c2c(O)c1OC
3. Cc1ccc(O)c(C2=CC3=NNC(=O)C3C(c3cccc(Cl)c3)C2)c1 (stereo not drawn)

## Output
18.5 µM (inactive)
26.9 µM (inactive)
32.7 µM (inactive)

Required: GI50, one value per compound below.
1. Brc1cc(CCOC2CCCCO2)c(-c2sccc2CCOC2CCCCO2)s1 (stereo not drawn)
2. CCCCCCCc1cscc1-c1cscc1Br
3. NCC1Nc2ccccc2[C@@H](O)C1O (stereo partly drawn)

## Output
37.7 µM (inactive)
35.9 µM (inactive)
> 100 µM (inactive)
